The values you see were collected from BindingDB's records for patent US20250320234.

# studySystem: Lon protease homolog, mitochondrial (Homo sapiens, UniProt P36776)
# Sequence (P36776 whole entry): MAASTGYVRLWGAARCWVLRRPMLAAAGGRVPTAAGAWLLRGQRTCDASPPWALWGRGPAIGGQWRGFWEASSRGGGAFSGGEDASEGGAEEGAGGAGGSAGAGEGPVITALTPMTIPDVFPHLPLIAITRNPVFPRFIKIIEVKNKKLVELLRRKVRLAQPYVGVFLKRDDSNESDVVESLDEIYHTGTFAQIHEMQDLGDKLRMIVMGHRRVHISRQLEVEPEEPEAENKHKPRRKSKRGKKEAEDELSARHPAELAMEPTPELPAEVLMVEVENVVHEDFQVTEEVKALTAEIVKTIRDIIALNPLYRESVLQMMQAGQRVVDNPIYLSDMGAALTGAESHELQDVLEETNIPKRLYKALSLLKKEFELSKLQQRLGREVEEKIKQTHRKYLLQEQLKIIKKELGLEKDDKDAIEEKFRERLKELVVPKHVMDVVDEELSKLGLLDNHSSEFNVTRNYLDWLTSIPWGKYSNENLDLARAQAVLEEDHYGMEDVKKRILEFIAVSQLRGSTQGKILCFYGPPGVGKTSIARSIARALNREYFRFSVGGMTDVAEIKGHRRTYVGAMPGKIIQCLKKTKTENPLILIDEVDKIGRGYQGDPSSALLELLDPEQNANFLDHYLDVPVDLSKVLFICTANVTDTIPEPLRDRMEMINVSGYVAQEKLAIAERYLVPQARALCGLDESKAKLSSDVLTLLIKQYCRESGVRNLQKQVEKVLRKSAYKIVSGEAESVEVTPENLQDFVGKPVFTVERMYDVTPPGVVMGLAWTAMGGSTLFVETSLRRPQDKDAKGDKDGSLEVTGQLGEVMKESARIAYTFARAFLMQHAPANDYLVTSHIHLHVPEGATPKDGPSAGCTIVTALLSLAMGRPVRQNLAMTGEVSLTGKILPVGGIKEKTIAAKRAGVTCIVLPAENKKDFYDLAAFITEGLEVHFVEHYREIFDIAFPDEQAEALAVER
outcomeMeasure: IC50

Past entries and their recorded results:
>>> result("COC[C@@H](NC(=O)c1cnccn1)C(=O)N[C@@](C)(CCCc1ccccc1)B(O)O")
"> 5000 nM"
>>> result("COC[C@@H](NC(=O)c1ccccn1)C(=O)N[C@@H](CCOc1ccccc1)B(O)O")
"< 50 nM"

Lookup: Item: COC[C@@H](NC(=O)c1cnccn1)C(=O)N[C@@H](CCOc1ccc(Cl)c(F)c1)B(O)O Test system: Lon protease homolog, mitochondrial (Homo sapiens, UniProt P36776) Read-out: IC50 Value: ?
Found: < 50 nM

Lookup: What measured IC50 is associated with COC[C@@H](NC(=O)c1cc(Cl)ccc1Cl)C(=O)N[C@@H](CCCc1ccccc1)B(O)O on Lon protease homolog, mitochondrial (Homo sapiens, UniProt P36776)?
Found: < 50 nM

###

# studySystem: Lon protease homolog, mitochondrial (Homo sapiens, UniProt P36776)
# Sequence (P36776 whole entry): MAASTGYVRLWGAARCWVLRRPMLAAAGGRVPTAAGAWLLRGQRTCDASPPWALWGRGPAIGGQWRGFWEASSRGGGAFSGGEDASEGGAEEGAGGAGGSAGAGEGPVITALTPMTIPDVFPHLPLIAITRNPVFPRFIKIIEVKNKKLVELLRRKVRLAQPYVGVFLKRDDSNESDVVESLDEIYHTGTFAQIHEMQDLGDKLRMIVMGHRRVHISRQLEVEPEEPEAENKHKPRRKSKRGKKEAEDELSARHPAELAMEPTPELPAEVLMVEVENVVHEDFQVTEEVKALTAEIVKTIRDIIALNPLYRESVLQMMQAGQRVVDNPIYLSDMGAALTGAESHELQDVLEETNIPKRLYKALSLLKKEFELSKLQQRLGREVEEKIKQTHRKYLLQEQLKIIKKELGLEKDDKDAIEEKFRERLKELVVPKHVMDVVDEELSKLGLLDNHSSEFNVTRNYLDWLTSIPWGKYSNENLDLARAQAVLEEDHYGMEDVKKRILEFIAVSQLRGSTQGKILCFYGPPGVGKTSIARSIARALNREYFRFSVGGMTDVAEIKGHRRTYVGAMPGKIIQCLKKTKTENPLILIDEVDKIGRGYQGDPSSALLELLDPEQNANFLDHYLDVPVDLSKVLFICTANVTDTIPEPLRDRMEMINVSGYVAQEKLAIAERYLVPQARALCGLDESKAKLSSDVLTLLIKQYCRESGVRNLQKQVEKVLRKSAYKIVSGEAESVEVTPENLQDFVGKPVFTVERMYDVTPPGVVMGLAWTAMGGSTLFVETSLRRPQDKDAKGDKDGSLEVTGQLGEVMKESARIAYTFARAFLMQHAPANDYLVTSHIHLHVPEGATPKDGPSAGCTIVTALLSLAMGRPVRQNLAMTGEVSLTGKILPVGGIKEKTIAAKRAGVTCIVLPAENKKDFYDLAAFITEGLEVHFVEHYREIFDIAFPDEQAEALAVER
Overview of recorded IC50 for various molecules

Please review the following examples before continuing.
>>> result("COC[C@@H](NC(=O)c1ccccn1)C(=O)N[C@@H](CCCc1ccccc1)B(O)O")
"< 50 nM"
>>> result("COC[C@@H](NC(=O)N1CCOCC1)C(=O)N[C@@H](CCCc1ccccc1)B(O)O")
"< 50 nM"

Let's switch to this molecule now.
Lookup: Reported IC50 for COC[C@@H](NC(=O)c1cncnc1)C(=O)N[C@@H](CCCc1ccccc1)B(O)O : what is it?
Found: < 50 nM
